Test system: Liver microsome
Protocol details: Prodrug conversion in rat liver microsomes assessed as half life
Assay readout: t1/2 (h)

I: CCOc1cc(NC(=O)C2(NC(=O)c3ccc4c(C5CCCC5)c(-c5ncc(Cl)cn5)n(C)c4c3)CCC2)ccc1/C=C/C(=O)OCCOc1ccccc1
II: CCOc1cc(NC(=O)C2(NC(=O)c3ccc4c(C5CCCC5)c(-c5ncc(Cl)cn5)n(C)c4c3)CCC2)ccc1/C=C/C(=O)OCC(=O)O
III: CCOc1cc(NC(=O)C2(NC(=O)c3ccc4c(C5CCCC5)c(-c5ncc(Cl)cn5)n(C)c4c3)CCC2)ccc1/C=C/C(=O)OCOC(=O)C(C)(C)C
Rank the listed compounds according to t1/2, from the largest value downward. # respond with the labels, arranged in the requested order
I, III, II

---

Protocol details: Prodrug conversion in simulated gastric fluid assessed as half life
Assay type: ADME
Condition: simulated gi fluid
Assay readout: t1/2 (min)

CCOc1cc(NC(=O)C2(NC(=O)c3ccc4c(C5CCCC5)c(-c5ncc(Cl)cn5)n(C)c4c3)CCC2)ccc1/C=C/C(=O)OCC[N+](C)(C)C.[Br-] ... 25
CCOc1cc(NC(=O)C2(NC(=O)c3ccc4c(C5CCCC5)c(-c5ncc(Cl)cn5)n(C)c4c3)CCC2)ccc1/C=C/C(=O)OCC(Cl)(Cl)Cl ... 105

I: CCOc1cc(NC(=O)C2(NC(=O)c3ccc4c(C5CCCC5)c(-c5ncc(Cl)cn5)n(C)c4c3)CCC2)ccc1/C=C/C(=O)N[C@@H](CCC(=O)O)C(N)=O
II: CCOC(=O)/C=C/c1ccc(NC(=O)C2(NC(=O)c3ccc4c(C5CCCC5)c(-c5ncc(Cl)cn5)n(C)c4c3)CCC2)cc1OCC
III: CCOc1cc(NC(=O)C2(NC(=O)c3ccc4c(C5CCCC5)c(-c5ncc(Cl)cn5)n(C)c4c3)CCC2)ccc1/C=C/C(=O)OCCC(C)C
IV: CCOc1cc(NC(=O)C2(NC(=O)c3ccc4c(C5CCCC5)c(-c5ncc(Cl)cn5)n(C)c4c3)CCC2)ccc1/C=C/C(=O)OCC(=O)N1CCOCC1
Rank ascending by t1/2. Put the labels in the order asked and list them.
II, I, IV, III
(II: 20 min, I: 32 min, IV: 51 min, III: 86 min)

---

Protocol details: Prodrug solubility in solutol
Type: ADME
Assay readout: solubility

Example entries begin here.
CCCN(C)C(=O)COC(=O)/C=C/c1ccc(NC(=O)C2(NC(=O)c3ccc4c(C5CCCC5)c(-c5ncc(Cl)cn5)n(C)c4c3)CCC2)cc1OCC ... < 200 mg/mL
CCOc1cc(NC(=O)C2(NC(=O)c3ccc4c(C5CCCC5)c(-c5ncc(Cl)cn5)n(C)c4c3)CCC2)ccc1/C=C/C(=O)OCC(N)=O ... 200 mg/mL
CCOc1cc(NC(=O)C2(NC(=O)c3ccc4c(C5CCCC5)c(-c5ncc(Cl)cn5)n(C)c4c3)CCC2)ccc1/C=C/C(=O)OCC(=O)N(C)C ... > 200 mg/mL
CCOc1cc(NC(=O)C2(NC(=O)c3ccc4c(C5CCCC5)c(-c5ncc(Cl)cn5)n(C)c4c3)CCC2)ccc1/C=C/C(=O)OCC(=O)N1CCN(C)CC1 ... < 100 mg/mL
CCOc1cc(NC(=O)C2(NC(=O)c3ccc4c(C5CCCC5)c(-c5ncc(Cl)cn5)n(C)c4c3)CCC2)ccc1/C=C/C(=O)OCCN1CCCC1 ... < 100 mg/mL
CCOc1cc(NC(=O)C2(NC(=O)c3ccc4c(C5CCCC5)c(-c5ncc(Cl)cn5)n(C)c4c3)CCC2)ccc1/C=C/C(=O)OCC(=O)N(C)C(C)C ... < 200 mg/mL
CCOc1cc(NC(=O)C2(NC(=O)c3ccc4c(C5CCCC5)c(-c5ncc(Cl)cn5)n(C)c4c3)CCC2)ccc1/C=C/C(=O)OCC(=O)NC ... < 200 mg/mL
CCOc1cc(NC(=O)C2(NC(=O)c3ccc4c(C5CCCC5)c(-c5ncc(Cl)cn5)n(C)c4c3)CCC2)ccc1/C=C/C(=O)OCCNN1CCCC1 ... < 100 mg/mL
CCOc1cc(NC(=O)C2(NC(=O)c3ccc4c(C5CCCC5)c(-c5ncc(Cl)cn5)n(C)c4c3)CCC2)ccc1/C=C/C(=O)OCCN(C)C ... < 100 mg/mL
CCOc1cc(NC(=O)C2(NC(=O)c3ccc4c(C5CCCC5)c(-c5ncc(Cl)cn5)n(C)c4c3)CCC2)ccc1/C=C/C(=O)OCCN1CCN(C)CC1 ... < 100 mg/mL

Returns the measured solubility for the input compound. Input: CCOc1cc(NC(=O)C2(NC(=O)c3ccc4c(C5CCCC5)c(-c5ncc(Cl)cn5)n(C)c4c3)CCC2)ccc1/C=C/C(=O)OCC(=O)N1CCCC1
200 mg/mL

Which value of solubility has been reported for CCOc1cc(NC(=O)C2(NC(=O)c3ccc4c(C5CCCC5)c(-c5ncc(Cl)cn5)n(C)c4c3)CCC2)ccc1/C=C/C(=O)OCC(=O)N1CCOCC1 in the records?
< 15 mg/mL

Can you look up the measured solubility of CCOc1cc(NC(=O)C2(NC(=O)c3ccc4c(C5CCCC5)c(-c5ncc(Cl)cn5)n(C)c4c3)CCC2)ccc1/C=C/C(=O)OCCOCCOC for me?
< 100 mg/mL

Returns the measured solubility for the input compound. Input: CCOc1cc(NC(=O)C2(NC(=O)c3ccc4c(C5CCCC5)c(-c5ncc(Cl)cn5)n(C)c4c3)CCC2)ccc1/C=C/C(=O)OCCN1CCOCC1
< 60 mg/mL

---

Protocol details: Cmax in rat plasma at 10 mg/kg, po using 10.6% PEG400, 5.4% Cremophor EL, 2.6% Labrasol, 1.4% Capmul MCM in water (80%) vehicle
Format: ADME, organism-based
Set-up: dose 10 mg/kg, route oral
Condition: plasma
Assay readout: Cmax (nM)

a: CCCCCCOC(=O)/C=C/c1ccc(NC(=O)C2(NC(=O)c3ccc4c(C5CCCC5)c(-c5ncc(Cl)cn5)n(C)c4c3)CCC2)cc1OCC
b: CCOc1cc(NC(=O)C2(NC(=O)c3ccc4c(C5CCCC5)c(-c5ncc(Cl)cn5)n(C)c4c3)CCC2)ccc1/C=C/C(=O)OCC(N)=O
Could you determine which record has the numerically smaller Cmax? Candidates: a and b Which one? Tell me its label.
b

P: CCOc1cc(NC(=O)C2(NC(=O)c3ccc4c(C5CCCC5)c(-c5ncc(Cl)cn5)n(C)c4c3)CCC2)ccc1/C=C/C(=O)OCCOCCOC
Q: CCOc1cc(NC(=O)C2(NC(=O)c3ccc4c(C5CCCC5)c(-c5ncc(Cl)cn5)n(C)c4c3)CCC2)ccc1/C=C/C(=O)OC
I would appreciate it if you could say which entry, P or Q , has the lower Cmax value. Answer = label.
P

P: CCOc1cc(NC(=O)C2(NC(=O)c3ccc4c(C5CCCC5)c(-c5ncc(Cl)cn5)n(C)c4c3)CCC2)ccc1/C=C/C(=O)OCOC(=O)C(C)(C)C
Q: CCOc1cc(NC(=O)C2(NC(=O)c3ccc4c(C5CCCC5)c(-c5ncc(Cl)cn5)n(C)c4c3)CCC2)ccc1/C=C/C(=O)OCCN1CCOCC1
R: CCOc1cc(NC(=O)C2(NC(=O)c3ccc4c(C5CCCC5)c(-c5ncc(Cl)cn5)n(C)c4c3)CCC2)ccc1/C=C/C(=O)OCC(=O)N(C)C
Order the records so the highest Cmax appears first and the lowest last. Hello, could you send the labels back in the order asked? Thank you.
Q, P, R
(Q: 70 nM, P: 40 nM, R: 20 nM)

---

// solubility lookup, one value per entry
Protocol details: Prodrug solubility in PEG400
Format: ADME

A selection of reference data follows.
CCOc1cc(NC(=O)C2(NC(=O)c3ccc4c(C5CCCC5)c(-c5ncc(Cl)cn5)n(C)c4c3)CCC2)ccc1/C=C/C(=O)OCC(=O)NC ... > 200 mg/mL
CCOc1cc(NC(=O)C2(NC(=O)c3ccc4c(C5CCCC5)c(-c5ncc(Cl)cn5)n(C)c4c3)CCC2)ccc1/C=C/C(=O)OCC(N)=O ... > 200 mg/mL
CCOc1cc(NC(=O)C2(NC(=O)c3ccc4c(C5CCCC5)c(-c5ncc(Cl)cn5)n(C)c4c3)CCC2)ccc1/C=C/C(=O)OCC(=O)N(C)C ... > 200 mg/mL
CCOc1cc(NC(=O)C2(NC(=O)c3ccc4c(C5CCCC5)c(-c5ncc(Cl)cn5)n(C)c4c3)CCC2)ccc1/C=C/C(=O)OCC(=O)N1CCCC1 ... > 200 mg/mL
CCCN(C)C(=O)COC(=O)/C=C/c1ccc(NC(=O)C2(NC(=O)c3ccc4c(C5CCCC5)c(-c5ncc(Cl)cn5)n(C)c4c3)CCC2)cc1OCC ... < 200 mg/mL

Next, consider the following compound.
For CCOc1cc(NC(=O)C2(NC(=O)c3ccc4c(C5CCCC5)c(-c5ncc(Cl)cn5)n(C)c4c3)CCC2)ccc1/C=C/C(=O)OCC(=O)N(C)C(C)C , what is its reported solubility?
> 200 mg/mL

Values compiled from ChEMBL document CHEMBL3352534.
